test: qHTS RealTime-Glo MT Cell Viability Assay in HepG2 cells - 40 hour (AID 1224870); conditions: RealTime-Glo luminescence; series mostly up to 76.8 µM; also: nearly all actives have a fitted effect of over 50% in size
Inconclusive results are not listed. The source made the active and inactive calls. Calls follow the shape of the dose curve; as a rule, active = well fitted cell-killing curve with a large enough effect in the repeat runs; inconclusive = weak or mixed curves, or effect the other way; inactive = flat fitted curve, though single readings scatter.
# valid calls are active, inactive; nothing else

Each compound tested received a call. Report the one for CCCCCCCC/C=C\CCCCCCCCOCCO .
inactive

Test call, this compound: O=C(c1ccc(F)cc1)C1CCN(CCn2c(=O)[nH]c3ccccc3c2=O)CC1
inactive

Which result was noted for this compound in the test: O=C(Nc1cccc(C(F)(F)F)c1)c1cc(Br)cc(Br)c1O
active

Can you look up the reported call for Nc1ccc2cc(S(=O)(=O)O)cc(O)c2c1N=Nc1ccccc1C(F)(F)F for me?
inactive

Could you check what this test reported for CCOc1ccc2nc3cc(N)ccc3c(N)c2c1 ?
active

Dear all, I need the recorded test outcome for CN(C)C(=O)C1(N2CCCCC2)CCN(CC[C@@]2(c3ccc(Cl)c(Cl)c3)CN(C(=O)c3ccccc3)CCO2)CC1 , thank you.
active

Recorded test call requested for NNc1nc(-c2ccccc2)cs1
inactive

Name the outcome recorded for OCCN(CCO)c1nc(N2CCCCC2)c2nc(N(CCO)CCO)nc(N3CCCCC3)c2n1 in the assay.
inactive

// param item: O=C(Nc1ccc(Oc2ccc(Cl)cc2)c(Cl)c1)c1cc(I)cc(I)c1O ; yields the recorded call
inactive

Could you kindly confirm the outcome this assay logged for Oc1cc2ccccc2c2ccccc12 ?
active

What classification did CCCCCCCCS(=O)C(C)Cc1ccc2c(c1)OCO2 (stereo unspecified) end up with in this test?
inactive

What is the recorded call for this compound in the test? Cc1onc(-c2ccccc2Cl)c1C(=O)N[C@@H]1C(=O)N2[C@@H]1SC(C)(C)[C@@H]2C(=O)O
inactive

How did this test come out for CCCCCCCCCCCCCC[P+](CCCC)(CCCC)CCCC (tested in a mixture with another compound) ?
active

Please indicate how the test categorized Cc1cc(O)c2ccccc2c1O .
active

Hey, what did the test say about Oc1ccc2c(c1)-c1ccccc1C2 ?
inactive

What classification did CC(=O)N1CCN(c2ccc(OC[C@H]3CO[C@](Cn4ccnc4)(c4ccc(Cl)cc4Cl)O3)cc2)CC1 end up with in this test?
active

State the result this test recorded for O=C(c1ccc(O)cc1O)c1ccc(O)cc1O .
inactive

Outcome? CC(C)(C)C(=O)OCOC(=O)C1N2C(=O)CC2S(=O)(=O)C1(C)C (stereo unspecified)
inactive

Hey, what did the test say about [O-][n+]1ccccc1SSc1cccc[n+]1[O-] ?
active

Record lookup: outcome of this test for CCCCCCCCCCCCCCCC[N+](C)(C)CCN(Cc1ccc(OC)cc1)c1ncccn1 ?
active

Identify the outcome logged in this assay for the compound shown: CN(C)CCCOC1(Cc2ccccc2)CCCCCC1
inactive

For CSc1ccc(/C=C2/C(C)=C(CC(=O)O)c3cc(F)ccc32)cc1 , which call appears in the assay record?
inactive

Called result for Oc1ccc(C2(c3ccc(O)cc3)CC3CC2C2CCCC32)cc1 (stereo unspecified)
inactive

Could you check what this test reported for COC(=O)C1=C(C)NC(C)=C(C(=O)OCCc2ccc(N3CCN(C(c4ccccc4)c4ccccc4)CC3)cc2)C1c1cccc([N+](=O)[O-])c1 (stereo unspecified) ?
inactive

For O=C1c2c(O)ccc(Nc3ccc(CCO)cc3)c2C(=O)c2c([N+](=O)[O-])ccc(O)c21 , what call appears in the results of this test?
inactive

Returns: the outcome recorded for CCC(Cl)C(Cl)C(Cl)CC(Cl)C(Cl)C(C)Cl (stereo unspecified) in this assay.
inactive

I would be grateful if you could indicate the recorded call for CCCC/C=C/CCCCO .
inactive

What outcome does the record of this test show for Cc1cc(=O)oc2cc(N(C)C)ccc12 ?
inactive

Short answer needed: outcome of this test for CCN(CC)CCCC(C)Nc1c2ccc(Cl)cc2nc2ccc(OC)cc12 (stereo unspecified) ?
active

Which outcome was assigned to CSc1ccc(C(=O)c2[nH]c(=O)[nH]c2C)cc1 in this test?
inactive

Just curious, what result did CCCCCCCCCCCCCCCC(=O)OC[C@H](O)[C@H]1OC(=O)C(O)=C1O get here?
inactive

What did the test return for O=CC=C(c1ccccc1)c1ccccc1 ?
inactive

For CCCCCCCCCCCC[N+](C)(C)CCCCCCCCCCCC , which call appears in the assay record?
active

Which outcome did this test record for the compound CCc1cc(Cc2cc(CC)cc(C(C)(C)C)c2O)c(O)c(C(C)(C)C)c1 ?
active

Tell me the recorded outcome of this test for CCCCCCC[N+](CC)(CC)CCCCc1ccc(Cl)cc1 .
active

# outcome recorded in this test, key = NC(=O)C1(N2CCCCC2)CCN(CCCN2c3ccccc3CCc3ccc(Cl)cc32)CC1
active

Please let me know the test result on file for Clc1ccc2cc3ccccc3cc2c1 .
inactive

Please share the test call associated with CCOC(=O)O[C@]1(C(=O)OCCl)CC[C@H]2[C@@H]3CCC4=CC(=O)C=C[C@]4(C)[C@H]3[C@@H](O)C[C@@]21C .
inactive

Could you kindly confirm the outcome this assay logged for O=[N+]([O-])c1ccccc1Nc1ccccc1 ?
inactive

Per the records of this test, what outcome belongs to CCCCN(CCCC)c1ccc(C(=O)c2ccccc2C(=O)O)c(O)c1 ?
inactive

Hi team, can someone confirm the assay call for N#CSc1ccc(N)c([N+](=O)[O-])c1 ?
inactive

Look up the recorded call for CC[C@H](c1ccc(O)cc1)[C@@H](CC)c1ccc(O)cc1 in this test.
inactive

Call for entry O=C1Cc2cc(CCN3CCN(c4nsc5ccccc45)CC3)c(Cl)cc2N1 :
inactive

# fetch the recorded call for O=C(O)c1c(Cl)cccc1Cl here
inactive

Could you kindly confirm the outcome this assay logged for C/C(=C(/OCCOc1ccc(Cl)cc1)c1ccc(Cl)cc1Cl)n1ccnc1 ?
inactive

Any idea what this test logged for C[n+]1ccn(Cc2ccccc2)c1 ?
inactive
